Sourced from patent US7612238B2

target: UniProt:P21453; assay: S1P receptor profiling, GTP[γ-35S] binding SPA, S1P1; conditions: GTP[γ-35S] binding, membranes of transfected CHO or RH7777 cells
Sequence (P21453 whole entry): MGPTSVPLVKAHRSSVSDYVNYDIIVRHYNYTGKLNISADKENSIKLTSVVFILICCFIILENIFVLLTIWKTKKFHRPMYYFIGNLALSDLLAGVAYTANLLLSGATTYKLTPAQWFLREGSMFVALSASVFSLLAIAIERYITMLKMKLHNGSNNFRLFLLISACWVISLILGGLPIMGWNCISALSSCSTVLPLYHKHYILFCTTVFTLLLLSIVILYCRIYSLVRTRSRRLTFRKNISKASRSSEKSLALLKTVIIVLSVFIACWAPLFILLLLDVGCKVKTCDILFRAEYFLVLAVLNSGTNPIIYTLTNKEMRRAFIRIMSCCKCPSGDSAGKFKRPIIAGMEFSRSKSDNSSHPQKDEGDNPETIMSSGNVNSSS
Property: EC50; scope: individual molecules
Kindly provide the numeric value in nM only, without the unit symbol.

The cases that follow already have their EC50 on record.
C[C@@](N)(CCc1ccc(OCCCC(F)(F)C(F)(F)F)cc1)COP(=O)(O)O [Example 34]	16.1
COc1ccc(CCOc2ccc(CCC(N)(CO)COP(=O)(O)O)cc2)cc1F (stereo not shown) [Example 94]	12.2

Lab note: measured EC50 of CC(N)(CCc1ccc(OCCc2ccc3ccccc3c2)cc1)COP(=O)(O)O (stereo not shown) [Example 42] was 4.1

Lab note: measured EC50 of C[C@@](N)(CCc1ccc(C(=O)CCc2ccc(-c3ccccc3)cc2)cc1)COP(=O)(O)O [Example 50] was 0.3
